Data origin, for the record: the supplement of paper PMC10065799

# assay-system: MERTK (UniProt Q12866)
# Sequence (Q12866 whole entry, looked up): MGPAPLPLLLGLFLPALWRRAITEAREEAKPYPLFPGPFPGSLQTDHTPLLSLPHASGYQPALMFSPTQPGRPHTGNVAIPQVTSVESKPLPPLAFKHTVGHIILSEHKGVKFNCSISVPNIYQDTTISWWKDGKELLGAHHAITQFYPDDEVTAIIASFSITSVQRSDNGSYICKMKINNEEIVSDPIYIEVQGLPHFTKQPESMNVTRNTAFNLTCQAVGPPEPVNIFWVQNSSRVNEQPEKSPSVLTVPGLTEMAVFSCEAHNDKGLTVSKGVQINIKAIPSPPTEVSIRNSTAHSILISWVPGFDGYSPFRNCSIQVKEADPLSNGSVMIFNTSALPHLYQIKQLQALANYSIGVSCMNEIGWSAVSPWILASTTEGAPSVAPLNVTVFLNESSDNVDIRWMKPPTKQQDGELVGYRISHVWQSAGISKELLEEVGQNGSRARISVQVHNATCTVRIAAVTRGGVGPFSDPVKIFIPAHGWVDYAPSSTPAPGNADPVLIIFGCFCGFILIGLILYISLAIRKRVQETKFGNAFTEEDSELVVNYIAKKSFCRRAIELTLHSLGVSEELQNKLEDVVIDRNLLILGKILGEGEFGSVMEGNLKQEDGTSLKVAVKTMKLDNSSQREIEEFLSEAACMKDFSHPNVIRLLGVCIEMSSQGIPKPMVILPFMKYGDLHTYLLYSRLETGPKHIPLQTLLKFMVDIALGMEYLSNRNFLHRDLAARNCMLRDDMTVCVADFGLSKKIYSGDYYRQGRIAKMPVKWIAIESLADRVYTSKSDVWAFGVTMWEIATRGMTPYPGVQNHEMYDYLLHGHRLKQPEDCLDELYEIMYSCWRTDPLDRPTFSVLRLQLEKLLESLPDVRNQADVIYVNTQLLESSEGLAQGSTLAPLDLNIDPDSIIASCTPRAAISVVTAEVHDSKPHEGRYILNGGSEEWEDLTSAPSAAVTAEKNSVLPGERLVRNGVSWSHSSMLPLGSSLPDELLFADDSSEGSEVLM
# protocol-notes: phosphorylation enrichment, bacterial display (enrichment ratio); higher = better substrate or ligand; peptides without Tyr show the background;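 also: 11-residue human phosphosite peptides and single-mutation variants displayed on the E. coli surface, counted by deep sequencing, each peptide's frequency after selection divided by its frequency in the unselected input library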;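 also: frequency after pTyr selection over input frequency; kinase dosed for 20-30% of maximal phosphorylation in three min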
Decision: phosphorylation enrichment >= 0.6 yields rule met, all other cases yield rule not met.

- sequence-content: "AAVNGYAFGGG [ECHS1_Y137]"
  class: "rule not met"
- sequence-content: "AVVEPYNSLLT [TUBA1A_Y185_I188L]"
  class: "rule not met"
- sequence-content: "QPDFLYDHIQP [TRRAP_Y862]"
  class: "rule met"
- sequence-content: "TPIFPYLLPKS [PLD2_Y580_T577I_YF]"
  class: "rule not met"
- sequence-content: "RQIQSYTCEID [DES_Y331_H326R]"
  class: "rule not met"
- sequence-content: "RDMMDYMLQGV [CYP21A2_Y259]"
  class: "rule not met"
- sequence-content: "QSMEPYTKQQL [STAT3_Y640_V637M]"
  class: "rule not met"
- sequence-content: "LKEIHYPPYTD [ALDH3B2_Y362]"
  class: "rule not met"
- sequence-content: "QMVGMYASSYM [AVPR2_Y124]"
  class: "rule met"
- sequence-content: "MTYVFYRENLR [NLRP14_Y443]"
  class: "rule not met"
- sequence-content: "GLVFLYMEKNQ [PRELP_Y156]"
  class: "rule not met"
- sequence-content: "PDMHSYMVRFN [GRIN2D_Y732_YF]"
  class: "rule met"
- sequence-content: "RQSHNYLGGFA [SYK_Y47_R45H]"
  class: "rule not met"
- sequence-content: "RKVAQYMLENE [SLC16A6_Y224_E221V]"
  class: "rule not met"
- sequence-content: "PEYVVYKPQME [CCRL2_Y170_F167Y]"
  class: "rule met"
- sequence-content: "LTPVKYLLSAT [GSDMC_Y26]"
  class: "rule not met"
- sequence-content: "QADVVYVNTQL [MERTK_Y872_I871V]"
  class: "rule not met"
- sequence-content: "TVQVAYYTMMM [SPATA17_Y83]"
  class: "rule met"
- sequence-content: "LSSNLYFRWLT [CNGA3_Y168_P163L_YF]"
  class: "rule met"
- sequence-content: "TVQVAYYTVMM [SPATA17_Y83_M86V]"
  class: "rule met"
- sequence-content: "RIGRKYKRVRF [F8_Y442_K444R]"
  class: "rule met"
- sequence-content: "YKIYRYTLNDN [FN1_Y1975_L1974R]"
  class: "rule not met"
- sequence-content: "EEHIPYTHMNG [INSR_Y1361]"
  class: "rule not met"
- sequence-content: "DKGTLYIVEQI [PLBD1_Y375]"
  class: "rule not met"
- sequence-content: "IKRIAYEFVEM [ADA_Y84]"
  class: "rule not met"
- sequence-content: "MKGDYYCYLAE [YWHAG_Y131_R132C]"
  class: "rule met"
- sequence-content: "GIYSGYDDAWD [POLR1C_Y36_N32I]"
  class: "rule met"
- sequence-content: "LEFGDCHPLKP [VPS35L_Y32_Y32C]"
  class: "rule not met"

----------
# assay-system: FGFR1 (UniProt P11362)
# Sequence (P11362 whole entry, looked up): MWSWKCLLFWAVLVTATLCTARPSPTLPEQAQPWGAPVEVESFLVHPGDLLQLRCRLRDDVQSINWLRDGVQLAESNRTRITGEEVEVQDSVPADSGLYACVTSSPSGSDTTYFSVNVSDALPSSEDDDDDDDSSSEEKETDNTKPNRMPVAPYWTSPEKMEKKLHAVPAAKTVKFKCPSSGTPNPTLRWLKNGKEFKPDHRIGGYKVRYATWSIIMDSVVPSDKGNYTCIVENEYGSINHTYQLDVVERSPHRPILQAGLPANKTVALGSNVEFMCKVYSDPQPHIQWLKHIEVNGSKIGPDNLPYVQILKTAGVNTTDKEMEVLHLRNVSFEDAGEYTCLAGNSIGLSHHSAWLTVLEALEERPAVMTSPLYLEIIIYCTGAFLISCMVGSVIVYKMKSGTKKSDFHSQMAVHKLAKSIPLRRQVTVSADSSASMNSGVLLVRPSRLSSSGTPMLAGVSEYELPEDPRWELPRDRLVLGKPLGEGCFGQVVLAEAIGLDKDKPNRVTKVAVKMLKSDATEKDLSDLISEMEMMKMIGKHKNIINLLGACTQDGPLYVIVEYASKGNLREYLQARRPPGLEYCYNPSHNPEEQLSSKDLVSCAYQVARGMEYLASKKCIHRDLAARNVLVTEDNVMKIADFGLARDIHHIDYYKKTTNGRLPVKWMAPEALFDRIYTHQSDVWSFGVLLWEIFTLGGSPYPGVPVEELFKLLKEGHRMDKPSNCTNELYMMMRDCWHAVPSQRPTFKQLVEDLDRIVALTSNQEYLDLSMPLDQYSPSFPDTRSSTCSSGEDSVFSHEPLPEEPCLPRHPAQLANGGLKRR
# protocol-notes: phosphorylation enrichment, bacterial display (enrichment ratio); higher = better substrate or ligand; peptides without Tyr show the background
Decision: phosphorylation enrichment >= 0.4 yields true (1), all other cases yield false (0).

- sequence-content: "HGQVNYEEFVQ [CALM2_Y139_D134H]"
  assay-system: "FGFR1 (UniProt P11362)"
  class: "true (1)"
- sequence-content: "DKGTLYIVEQI [PLBD1_Y375]"
  assay-system: "FGFR1 (UniProt P11362)"
  class: "true (1)"
- sequence-content: "NCLRQYVAGRF [CRB1_Y711_E710Q]"
  assay-system: "FGFR1 (UniProt P11362)"
  class: "false (0)"
- sequence-content: "ALDHKYHGGGG [HBB_Y146_A143D]"
  assay-system: "FGFR1 (UniProt P11362)"
  class: "false (0)"
- sequence-content: "YGSSSYRGAGG [RPA2_Y14_G15R]"
  assay-system: "FGFR1 (UniProt P11362)"
  class: "false (0)"
- sequence-content: "RREWYYEVIIV [BACE1_Y260]"
  assay-system: "FGFR1 (UniProt P11362)"
  class: "true (1)"
